- TEST_METHOD_NOTES: binders of probe aFGF2 on microarray, primary screen, stem cell growth factor project, biochemical, small-molecule microarray, fluorescence 635/667 (AID 1067);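 further: measures binding of biotinylated aFGF2 protein to printed compounds on slides; z-score merges feature fluorescence and signal-to-noise across triplicate slides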
- STATED_CONDITIONS: higher = more signal
Give true (1) when the value for composite z-score is at least -0.1. Give false (0) when it is less.

1. CC[C@@H]1C=C(C(=O)O)[C@H](c2ccco2)N1S(=O)(=O)c1ccc(C)cc1 : true (1)
2. CN1C2C=C(CCCO)C(C3C(=O)N(C(N)=O)C(=O)C32)C1c1ccc(CN2CCCC2)cc1 (configuration not stated) : false (0)
3. COc1ccc(CCNC(=O)[C@@]2(C)c3ccccc3C(=O)N(Cc3cc(F)cc(C(F)(F)F)c3)[C@H]2c2ccc(CO)cc2)cc1 : true (1)
4. C[N+](C)(C)CCCCNC(=O)[C@H]1C[C@H]2C(=O)N[C@@H](Cc3ccccc3)C(=O)N2[C@H]1c1ccc(O)cc1 : true (1)
5. Cc1ccc(S[C@]2(C(=O)NCCN3CCOCC3)CC(=O)N(Cc3ccccc3Cl)[C@@H]2c2ccc(CO)cc2)cc1 : true (1)
6. CC1CC/C=C\[C@H]2OC34C=CCN(Cn5nnc6ccccc65)C(=O)[C@H]3N(C(CO)C(C)C)C(=O)[C@@H]4C2C(=O)O1 (some centres not stated) : false (0)
7. C=C(C)C1C(=C)CN([C@H](CO)c2ccccc2)C1=O (some centres not stated) : false (0)
8. CC(=O)N1Cc2ccccc2C[C@@]2(COC(c3ccc(OCCCO)cc3)=N2)C1=O : true (1)
9. C=CCNC(=O)[C@H]1[C@@H]2C(=O)O[C@@H](c3ccccc3)[C@@H](c3ccccc3)N2[C@@H](c2ccccc2OCCO)[C@]12C(=O)Nc1ccc(C#CC3=CCCCC3)cc12 : true (1)
10. COc1ccc(COC2OC[C@]3(C)[C@H]4C5=C(CN3C(=O)OC(C)(C)C)[C@H](C)C(CO)C(CO)C5CC[C@@H]24)cc1 (some centres not stated) : true (1)
11. C[C@]1(C(=O)NC2CC2)c2ccccc2C(=O)N(Cc2cc(C(F)(F)F)cc(C(F)(F)F)c2)[C@H]1c1ccc(CO)cc1 : true (1)
12. COc1ccc(CCNC(=O)[C@@]2(Sc3ccc(C)cc3)CC(=O)N(C3CCCCC3)[C@@H]2c2ccc(CO)cc2I)cc1 : true (1)
13. C#CCNC(=O)[C@H](Cc1ccccc1)NC(=O)CCC(=O)O : false (0)
14. CC(C)C(CO)N1C(=O)[C@@H]2[C@H]3C(=O)OCC=C[C@H]3OC23C=CCN(C(C)C)C(=O)[C@@H]13 (some centres not stated) : false (0)
15. O=C1OCCC/C=C\[C@H]2OC34C=CCN(Cn5nnc6ccccc65)C(=O)[C@H]3N(CCCCCCO)C(=O)[C@@H]4C12 (some centres not stated) : false (0)
16. COc1ccc(CCN2C(=O)[C@@]3(Cc4ccccc42)c2ccccc2C(=O)N(Cc2ccccc2C(F)(F)F)[C@H]3c2ccc(CO)cc2)cc1 : false (0)
17. CCCCCC1=C2CNC(CCC)(C(=O)OC)C=C2C(C)C1=O (configuration not stated) : true (1)
18. C=C(/C(=C/C[C@@H](OC(C)=O)c1ccc(OCCO)cc1)c1cnc2ccccc2c1)C(C)C : true (1)
19. CN(C)CCCCCCNC(=O)[C@@H]1C[C@@H]2C(=O)N[C@@H](CCCCN)C(=O)N2[C@@H]1c1cccc(OCCO)c1 : true (1)
20. CCOC(=O)C[C@H]1[C@H](OC(=O)c2cc3ccccc3oc2=O)[C@@H](NC(=O)C2CCCCC2)c2cc(OCCCO)ccc2N1C(=O)c1ccccc1 : false (0)
21. CCOC(=O)C1=CCC(c2ccccc2)N(S(=O)(=O)CC[Si](C)(C)C)C1 (configuration not stated) : false (0)
22. COc1ccc([Si](C)(C)[C@H]2[C@H](CC(=O)N3Cc4ccccc4C[C@H]3CO)O[C@@]3(C(=O)N(Cc4ccc(N5CCC5=O)cc4)c4ccccc43)[C@@H]2C)cc1 : true (1)
